- Study Target: human orexin-2 receptor (Homo sapiens (Human))
- Sequence (O43614 whole entry): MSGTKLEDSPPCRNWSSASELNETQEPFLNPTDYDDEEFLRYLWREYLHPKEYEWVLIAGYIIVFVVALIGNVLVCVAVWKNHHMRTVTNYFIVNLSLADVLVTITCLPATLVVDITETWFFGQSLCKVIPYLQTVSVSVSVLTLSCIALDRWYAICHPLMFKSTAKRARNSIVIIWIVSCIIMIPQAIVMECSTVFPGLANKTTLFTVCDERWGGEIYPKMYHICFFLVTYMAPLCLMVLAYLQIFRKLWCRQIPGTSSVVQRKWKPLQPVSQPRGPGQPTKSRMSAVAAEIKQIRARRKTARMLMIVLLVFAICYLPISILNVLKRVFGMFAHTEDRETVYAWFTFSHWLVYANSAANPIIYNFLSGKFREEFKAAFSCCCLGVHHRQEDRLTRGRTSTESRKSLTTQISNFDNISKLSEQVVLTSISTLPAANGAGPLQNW
- Assay Protocol: In vitro assay: intracellular calcium measurements (FLIPR), antagonistic activity
- Assay type: cell-based
- Condition: CHO cells expressing human orexin-2 receptor, orexin-A agonist, geometric mean, read-out: IC50 Ox2
- Description: In Vitro Assay: Intracellular Calcium Measurements: […] Within the Fluorescent Imaging Plate Reader (FLIPR Tetra, Molecular Devices), antagonists are added to the plate in a volume of 10 μl/well, incubated for 120 min and finally 10 μl/well of agonist is added. […] The calculated IC50 values may fluctuate depending on the daily cellular assay performance. […]
Experimental Endpoint: pIC50
Numbers only, as −log10 of the molar value.

Give measured pIC50 for every item shown.
1. C=C1C[C@@H](c2nc3cc(OC)ccc3[nH]2)N(C(=O)c2nc(C)sc2-c2cccc(C(F)(F)F)c2)C1
2. C=C1CC(c2nc3cc(OC)ccc3[nH]2)N(C(=O)c2nc(C3CC3)sc2-c2cccc(C)c2)C1 (racemic)
3. Cc1nc(C(=O)N2C[C@@H](F)C[C@H]2c2nc3c(C)c(Cl)ccc3[nH]2)c(-c2ccccc2)s1
4. COc1cc2nc([C@@H]3[C@@H](C)CCN3C(=O)c3c(C)cccc3-n3nccn3)[nH]c2cc1OC

Outgoing:
[7.51, 7.70, 7.38, 5.88]

Data provenance is patent US9732075B2.
